Published IC50 for Receptor tyrosine-protein kinase erbB-2 (Homo sapiens, UniProt P04626), assembled from different documents, is shown next.
The figure you give is taken to be in nM; do not add the unit.

Below, 5 compounds whose answers are already recorded.
Kindly note: Receptor tyrosine-protein kinase erbB-2 (Homo sapiens, UniProt P04626), Cc1cc(Nc2ncnc3cnc(N4CC5C6CCC(O6)C5C4)nc23)ccc1Oc1ccc2c(c1)ncn2C (configuration not stated) , IC50 value reported: 60.6

Kindly note: Receptor tyrosine-protein kinase erbB-2 (Homo sapiens, UniProt P04626), "Cc1cc(Nc2ncnc3cnc(N4CCCO4)nc23)ccc1Oc1ccc2c(c1)ncn2C" , IC50 value reported: 67.1

Kindly note: Receptor tyrosine-protein kinase erbB-2 (Homo sapiens, UniProt P04626), "Fc1cccc(COc2ccc(Nc3ncnc4sc(C#C[C@H]5CCCN5)cc34)cc2Cl)c1" , IC50 value reported: 54

Kindly note: Receptor tyrosine-protein kinase erbB-2 (Homo sapiens, UniProt P04626), "CN1C[C@@H](OC(=O)N2CC=CC2)C[C@H](C(=O)NO)[C@H]1C(=O)N1CCN(c2ccccc2)CC1" , IC50 value reported: 3.8

Kindly note: Receptor tyrosine-protein kinase erbB-2 (Homo sapiens, UniProt P04626), CN(C(=O)c1ccccc1)C1CN[C@H](C(=O)N2CC=C(c3ccccc3)CC2)[C@@H](C(=O)NO)C1 (some centres not stated) , IC50 value reported: 10

Turning now to a further record.
Kindly note: Receptor tyrosine-protein kinase erbB-2 (Homo sapiens, UniProt P04626), "Cc1cc(Nc2ncnc3cnc(N(C)C[C@H](C)O)nc23)ccc1Oc1ccc2c(c1)ncn2C" , IC50 value reported: 37.5

###

Published pIC50 for Receptor tyrosine-protein kinase erbB-2 (Homo sapiens, UniProt P04626), assembled from different documents, is shown next.
Interpret pIC50 as the negative base-10 log of the concentration measured in mol/L.

Below, 5 compounds whose answers are already recorded.
pIC50 recorded for this compound, CC(C)C(=O)N(C)C1CN[C@H](C(=O)N2CC[C@H](c3ccccc3)C2)[C@@H](C(=O)NO)C1 (stereo partly specified) , is 7.28

pIC50 recorded for this compound, "COc1cc2ncnc(Nc3ccc(C(=O)/C=C/c4ccc(Cl)cc4)cc3)c2cc1OC" , is 4.01

pIC50 recorded for this compound, "CN1C[C@@H](OC(=O)N2CCCCC2)C[C@H](C(=O)NO)[C@H]1C(=O)N1CCN(c2ccccc2)CC1" , is 8.14

pIC50 recorded for this compound, "C#Cc1cc2ncnc(Nc3ccc(OCc4cccc(F)c4)c(Cl)c3)c2s1" , is 7.92

pIC50 recorded for this compound, Cc1cc(Nc2ncnc3cnc(N4CC(C)(O)CO4)nc23)ccc1Oc1ccc2c(c1)ncn2C (stereo unspecified) , is 6.77

Continuing:
pIC50 recorded for this compound, "Cc1cc(Nc2ncnc3cnc(N(C)C[C@@H](C)O)nc23)ccc1Oc1ccc2c(c1)ncn2C" , is 7.49

###

Published IC50 for Receptor tyrosine-protein kinase erbB-2 (Homo sapiens, UniProt P04626), assembled from different documents, is shown next.
The figure you give is taken to be in nM; do not add the unit.

IC50 recorded for this compound, "C[C@H](N)C#Cc1cc2c(Nc3ccc(OCc4cccc(F)c4)c(Cl)c3)ncnc2s1" , is 44

IC50 recorded for this compound, "Cc1cc(Nc2ncnc3cnc(N(C)CCO)nc23)ccc1Oc1ccc2c(c1)ncn2C" , is 25.6

IC50 recorded for this compound, "Nc1cnc(C#Cc2cc3ncnc(Nc4ccc(OCc5cccc(F)c5)c(Cl)c4)c3s2)cn1" , is 10

IC50 recorded for this compound, "O=C(NO)[C@H]1C[C@H](OC(=O)N2CCCC2)CN[C@@H]1C(=O)N1CCC(c2ccccc2)CC1" , is 42

IC50 recorded for this compound, "Fc1cccc(COc2ccc(Nc3ncnc4cc(C#C[C@H]5CCCN5)sc34)cc2Cl)c1" , is 13

Continuing:
IC50 recorded for this compound, "CN1C[C@@H](OC(=O)N2CCCCCCC2)C[C@H](C(=O)NO)[C@H]1C(=O)N1CCN(c2ccccc2)CC1" , is 27.5

IC50 recorded for this compound, O=C(NO)[C@H]1CC(CC(=O)N2CCCC2)CN[C@@H]1C(=O)N1CC=C(c2ccccc2)CC1 (stereo partly drawn) , is 4.3
